Attribution: patent US9629830B2

Assay: Blood and brain penetration assay after single oral administration
Type: in vivo, mouse
Details: male, C57Bl/6, plasma; mouse, single oral 50 mg/kg; read-out: Tmax in plasma (converted)
Reported property: Tmax

| Compound | Result |
| --- | --- |
| CC[C@H]1CN2CC[C@]3(C(=O)Nc4ccccc43)[C@@H]2C[C@@H]1/C(=C\OC)C(=O)OC [Rhy] | 30.8 min |

---

Assay: Blood and brain penetration assay after single oral administration
Assay type: in vivo, mouse
Details: male, C57Bl/6; mouse, single oral 50 mg/kg, perfused brain; read-out: Tmax in brain (converted)
Reported property: Tmax (min)

| Molecule | Number |
| --- | --- |
| CC[C@H]1CN2CC[C@]3(C(=O)Nc4ccccc43)[C@@H]2C[C@@H]1/C(=C\OC)C(=O)OC [Rhy] | 55 |
